Tested on: A375 (Melanoma)
assayDetails: combination Emax (second highest fraction inhibited in the dose matrix, 72 h); higher = more inhibition; extreme values may be limits of the assay
observedProperty: combination Emax

{"columns": ["compound", "observedProperty", "observedResult"],
 "data": [
  ["CN(CCO)CC[C@H](CSc1ccccc1)Nc1ccc(S(=O)(=O)NC(=O)c2ccc(N3CCC([C@@H](O)c4ccccc4-c4ccc(Cl)cc4)CC3)cc2)cc1S(=O)(=O)C(F)(F)F [AZD4320] + Cc1cc2ncnn2cc1Nc1ncc2c(n1)n(C1CCOCC1)c(=O)n2C [AZD7648] (first compound max 1 µM, 7x7, partner max 10 µM)", "combination Emax", 0.134],
  ["NC1(C(=O)N[C@@H](CCO)c2ccc(Cl)cc2)CCN(c2ncnc3[nH]ccc23)CC1 [Capivasertib] + CC(C)n1c(=O)n(C)c2cnc3cc(F)c(-c4ccc(OCCCN5CCCCC5)nc4)cc3c21 [AZD1390] (first compound max 10 µM, 7x7, partner max 0.3 µM)", "combination Emax", 0.228],
  ["COc1nnc2ccc(N3CCC(c4ccc(OCCN5CCN(C)C(=O)[C@H]5C)cc4)CC3)nn12 [AZD5153] + C[C@@H]1COCCN1C2=NC(=NC(=C2)C3(CC3)[S@](=N)(=O)C)C4=C5C=CNC5=NC=C4 [AZD6738] (first compound max 1 µM, 7x7, partner max 10 µM)", "combination Emax", 0.774],
  ["C=CCn1c(=O)c2cnc(Nc3ccc(N4CCN(C)CC4)cc3)nc2n1-c1cccc(C(C)(C)O)n1 [AZD1775] + Nc1ccn([C@@H]2O[C@H](CO)[C@@H](O)C2(F)F)c(=O)n1 [Gemcitabine] (first compound max 1 µM, partner max 0.3 µM)", "combination Emax", 0.966],
  ["CC1(C)CCC(CN2CCN(c3ccc(C(=O)NS(=O)(=O)c4ccc(NCC5CCOCC5)c([N+](=O)[O-])c4)c(Oc4cnc5[nH]ccc5c4)c3)CC2)=C(c2ccc(Cl)cc2)C1 [Venetoclax] + CN(C)CCCOc1ccc(-c2ccc3ncc4c(c3c2)n(C2CCOCC2)c(=O)n4C)cn1 [AZD0156] (first compound max 1 µM, 7x7, partner max 1 µM)", "combination Emax", 0.216],
  ["Cc1c2c(nn1C)CSCc1cc(n(C)n1)CSc1cc(c3ccccc3c1)OCCCc1c(C(=O)O)n(C)c3c-2c(Cl)ccc13 [AZD5991] + Cc1cc2ncnn2cc1Nc1ncc2c(n1)n(C1CCOCC1)c(=O)n2C [AZD7648] (first compound max 1 µM, 7x7, partner max 10 µM)", "combination Emax", 0.331],
  ["COc1nnc2ccc(N3CCC(c4ccc(OCCN5CCN(C)C(=O)[C@H]5C)cc4)CC3)nn12 [AZD5153] + CC1(C)CCC(CN2CCN(c3ccc(C(=O)NS(=O)(=O)c4ccc(NCC5CCOCC5)c([N+](=O)[O-])c4)c(Oc4cnc5[nH]ccc5c4)c3)CC2)=C(c2ccc(Cl)cc2)C1 [Venetoclax] (first compound max 1 µM, 7x7, partner max 1 µM)", "combination Emax", 0.44],
  ["CC(=O)c1c(C)c2cnc(Nc3ccc(N4CCNCC4)cn3)nc2n(C2CCCC2)c1=O [Palbociclib] + Cc1c2c(nn1C)CSCc1cc(n(C)n1)CSc1cc(c3ccccc3c1)OCCCc1c(C(=O)O)n(C)c3c-2c(Cl)ccc13 [AZD5991] (first compound max 10 µM, 7x7, partner max 1 µM)", "combination Emax", 0.356],
  ["Cc1c2c(nn1C)CSCc1cc(n(C)n1)CSc1cc(c3ccccc3c1)OCCCc1c(C(=O)O)n(C)c3c-2c(Cl)ccc13 [AZD5991] + C=CCn1c(=O)c2cnc(Nc3ccc(N4CCN(C)CC4)cc3)nc2n1-c1cccc(C(C)(C)O)n1 [AZD1775] (first compound max 1 µM, partner max 1 µM)", "combination Emax", 0.818],
  ["C[C@@H]1COCCN1c1cc(C2([S@](C)(=N)=O)CC2)nc(-c2ccnc3[nH]ccc23)n1 [AZD6738] + C1CC(C1)(C(=O)[O-])C(=O)[O-].N.N.[Pt+2] [Carboplatin] (first compound max 10 µM, 7x7, partner max 10 µM)", "combination Emax", 0.521],
  ["N#Cc1cnc(Nc2cc(NC[C@H]3CNCCO3)c(C(F)(F)F)cn2)cn1 [SRA737] + Nc1ccn([C@@H]2O[C@H](CO)[C@@H](O)C2(F)F)c(=O)n1 [Gemcitabine] (first compound max 10 µM, 7x7, partner max 0.3 µM)", "combination Emax", 0.972],
  ["COc1cccc(OCCCN)c1-c1cc(Nc2cnc(C#N)cn2)n[nH]1 [Prexasertib] + CN(C)CCCOc1ccc(-c2ccc3ncc4c(c3c2)n(C2CCOCC2)c(=O)n4C)cn1 [AZD0156] (first compound max 1 µM, 7x7, partner max 1 µM)", "combination Emax", 0.851],
  ["C=CCn1c(=O)c2cnc(Nc3ccc(N4CCN(C)CC4)cc3)nc2n1-c1cccc(C(C)(C)O)n1 [AZD1775] + CCc1c2c(nc3ccc(O)cc13)-c1cc3c(c(=O)n1C2)COC(=O)[C@]3(O)CC [SN-38] (first compound max 1 µM, partner max 0.3 µM)", "combination Emax", 0.925]
]}

Numbers sourced from the supplement of paper PMC11061612.
